Assay: Substrate activity at OATP1B1 (unknown origin) expressed in HEK293 cells assessed as cytotoxicity incubated for 48 hrs by sulforhodamine B assay
Numbered stars: 1 amine (or outer) side, 2 acyl side, 3 side chain; on linkers, the order of the positions; unused ones are H or OH. Bridge positions count the residues as written; N and C are the ends. Square brackets hold non-standard residues; d marks the D form. Peptide text beside a SMILES is read from it. * marks the point of attachment. Adda = CO[C@@H](Cc1ccccc1)[C@@H](C)/C=C(C)/C=C/[C@H](N[*:1])[C@H](C)C(=O)[*:2]; dAsp(3S-Me) = C[C@H](C(=O)[*:3])[C@@H](N[*:1])C(=O)[*:2]; d(γGlu) = O=C(O)[C@@H](CCC(=O)[*:2])N[*:1]; NMeDha = C=C(NC)C(=O)O; Propargyl = C#CC*
Task for the reader: assign each of the following compounds its reported EC50.
Numeric answer only, unit nM assumed.

Query: EC50; subject: C=C1C(=O)N[C@H](C)C(=O)N[C@@H](Cc2ccc(OCc3cn(-c4cc5ccc(O)cc5oc4=O)nn3)cc2)C(=O)N[C@@H](C(=O)O)[C@H](C)C(=O)N[C@@H](CCCNC(=N)N)C(=O)N[C@@H](/C=C/C(C)=C/[C@H](C)[C@H](Cc2ccccc2)OC)[C@H](C)C(=O)N[C@@H](C(=O)O)CCC(=O)N1C 1.7

Input C#CCOc1ccc(C[C@@H]2NC(=O)[C@@H](C)NC(=O)C(=C)N(C)C(=O)CC[C@H](C(=O)O)NC(=O)[C@@H](C)[C@H](/C=C/C(C)=C/[C@H](C)[C@H](Cc3ccccc3)OC)NC(=O)[C@H](CCCNC(=N)N)NC(=O)[C@@H](C)[C@H](C(=O)O)NC2=O)cc1 (R[Adda][d(γGlu)][NMeDha][dA]Y(Propargyl)[dAsp(3S-Me)]-OH; lactam N-7) 1.1

// query: C=C1C(=O)N[C@H](C)C(=O)N[C@@H](Cc2ccc(O)cc2)C(=O)N[C@@H](C(=O)O)[C@H](C)C(=O)N[C@@H](CCCNC(=N)N)C(=O)N[C@@H](/C=C/C(C)=C/[C@H](C)[C@H](Cc2ccccc2)OC)[C@H](C)C(=O)N[C@@H](C(=O)O)CCC(=O)N1C (R[Adda][d(γGlu)][NMeDha][dA]Y[dAsp(3S-Me)]-OH; lactam N-7) 4.5

###

Assay: Substrate activity at OATP1B3 (unknown origin) expressed in HEK293 cells assessed as cytotoxicity incubated for 48 hrs by sulforhodamine B assay
Numbered stars: 1 amine (or outer) side, 2 acyl side, 3 side chain; on linkers, the order of the positions; unused ones are H or OH. Bridge positions count the residues as written; N and C are the ends. Square brackets hold non-standard residues; d marks the D form. Peptide text beside a SMILES is read from it. * marks the point of attachment. Adda = CO[C@@H](Cc1ccccc1)[C@@H](C)/C=C(C)/C=C/[C@H](N[*:1])[C@H](C)C(=O)[*:2]; dAsp(3S-Me) = C[C@H](C(=O)[*:3])[C@@H](N[*:1])C(=O)[*:2]; d(γGlu) = O=C(O)[C@@H](CCC(=O)[*:2])N[*:1]; NMeDha = C=C(NC)C(=O)O; Propargyl = C#CC*
Exercise: for every item that follows, state its recorded EC50.
Kindly answer with a numeric value in nM, unit omitted.

Requested read-out: EC50. Entry: C#CCOc1ccc(C[C@@H]2NC(=O)[C@@H](C)NC(=O)C(=C)N(C)C(=O)CC[C@H](C(=O)O)NC(=O)[C@@H](C)[C@H](/C=C/C(C)=C/[C@H](C)[C@H](Cc3ccccc3)OC)NC(=O)[C@H](CCCNC(=N)N)NC(=O)[C@@H](C)[C@H](C(=O)O)NC2=O)cc1 (R[Adda][d(γGlu)][NMeDha][dA]Y(Propargyl)[dAsp(3S-Me)]-OH; lactam N-7) 2.4

// same read-out, input: C=C1C(=O)N[C@H](C)C(=O)N[C@@H](Cc2ccc(O)cc2)C(=O)N[C@@H](C(=O)O)[C@H](C)C(=O)N[C@@H](CCCNC(=N)N)C(=O)N[C@@H](/C=C/C(C)=C/[C@H](C)[C@H](Cc2ccccc2)OC)[C@H](C)C(=O)N[C@@H](C(=O)O)CCC(=O)N1C (R[Adda][d(γGlu)][NMeDha][dA]Y[dAsp(3S-Me)]-OH; lactam N-7) 3

Do the same for C=C1C(=O)N[C@H](C)C(=O)N[C@@H](Cc2ccc(OCc3cn(-c4cc5ccc(O)cc5oc4=O)nn3)cc2)C(=O)N[C@@H](C(=O)O)[C@H](C)C(=O)N[C@@H](CCCNC(=N)N)C(=O)N[C@@H](/C=C/C(C)=C/[C@H](C)[C@H](Cc2ccccc2)OC)[C@H](C)C(=O)N[C@@H](C(=O)O)CCC(=O)N1C please 1.4
